Source of measurements: the supplement of paper PMC9170038

apparent KD of MS2 coat protein listing for selected sequences.
tested on: MS2 coat protein; test: apparent KD of MS2 coat protein; designed switch direction (-1 OFF switch, 1 ON switch): -1; higher = weaker reporter binding; settings: input ligand: FMN 200 uM
Provide only the numeric value, understood in nM.

UAUCGCAAGCGAAGAUCCCACAUGAGGAUCACCCAUGUGCUCGUCUUAUAAGGUACUGUGACGAUAGUCACGGUACC [Mat - Sensor, turn-off var - Eli Mod - D77] (Eterna round: R97, puzzle: Sensor, turn-off variant 1) : 33.6

Q. State, in one line, measured apparent KD of MS2 coat protein of AAUAAUUGUGACUUGGGUGACAUGAGGAUCACCCAUGUUACAAGCUUGUUGCUCGUCUUAUAAUUAACCCAUGUCAC [LRO Sensor-off var1-24 mod of Stov1-13-A1 by Brourd] (Eterna round: R97, puzzle: Sensor, turn-off variant 1)
A. 21.1
